attribute measured: melting point

Lab note: measured melting point of CCCCCC12CCC(c3ccc(C#N)c(F)c3)(CC1)CC2 was 63 °C

The value of melting point measured for the compound O=C(O)COc1ccc2c(-c3ccccc3F)noc2c1Cl turned out to be 188 to 189 °C

The reported melting point of the compound CC(=O)NCC1CN(c2ccc(N3CCN(C(=O)COC(=O)CCCN(C)C)CC3)c(F)c2)C(=O)O1 (stereo not given) was 69 to 71 °C

Lab book: melting point of COc1cc(CCCCCCCCCCCO)ccc1O noted as 72 to 74 °C

Lab book: melting point of CCCc1c(OCCCSc2ccc(C(=O)NCC(=O)OCC)cc2)ccc(C(C)=O)c1O noted as 115 to 116 °C

Documented melting point of O=C(NC(Cc1ccc(OCc2ccc(F)cc2)cc1)C(=O)O)c1cc2cc(-c3ccc(Cl)cc3)ccc2s1 (stereo not given) : 189 to 190 °C

Reported melting point for CCOCc1nc2c(N)nc3cccnc3c2n1CC(C)(C)NC(=O)NC(C)C was 172 to 174 °C

Input CSC(=NC(=O)CS(C)(=O)=O)N(C)N=Cc1ccccc1 . Output melting point: 150 °C

melting point for COC(=O)c1nc(S(C)(=O)=O)ncc1Cl is 96 °C

Entry CCCCC(=O)/C=C/c1ccccc1 — recorded melting point = 32 to 32.5 °C

melting point for CCS(=O)(=O)n1cc(C(=O)c2ccn3c2CSC3c2cccnc2)c2ccc(-c3ccc(F)cc3)cc21 (stereo not given) is 132 °C

Notebook: COC(=O)[C@H]1Cc2c(sc3ccccc23)[C@@H](c2cccc(O)c2)N1 , melting point read as 283 to 285 °C

The measured melting point associated with CC1(C)Oc2c(N)c(Cl)cc(Cl)c2C1=O reads 168 to 170 °C

Form: compound = COC(=O)COc1cccc2c(CCN=[N+]=[N-])coc12 ; melting point = 95 to 97 °C

response.value for CCOc1nn(Cc2ccc(OCc3cn4c(-c5ccccc5)cccc4n3)cc2)cc1CCC(=O)O (field: melting point) = 160 to 161 °C

GET /value?item= CSc1nc2c(Cl)ccc(-n3c(=O)cc(C(F)(F)F)n(C)c3=O)c2s1 &field=melting point returns 79 to 81 °C

Record O=C(O)c1ccccc1Sc1ccc(C(O)=NCc2ccccc2)c(C(=O)O)c1 . Reported melting point: 289 to 294 °C

Entry COc1ccc2ccccc2c1OP(=O)(O)O ; melting point = 171 °C

Record summary for O=Cc1cc(C#Cc2ccccc2)c(C=O)cc1C#Cc1ccccc1 : reported melting point = 179 to 181 °C

Query COC(=O)CCc1cc2cc(Cl)ccc2n1S(=O)(=O)c1cccc(C(F)(F)F)c1 yields melting point of 98 to 100 °C

---

attribute measured: melting point

So, c1ccc(-c2[nH]c3ccccc3c2C2CCNCC2)cc1 ? Its melting point was 187 to 188 °C

// melting point value for O=C(O)c1ccc(Cl)cc1OCCN1CCC(c2cn(Cc3ccoc3)c3ncccc23)CC1 : 81.6 to 83.3 °C

// sample Cc1cccnc1NN , its melting point was 119 °C

# melting point of Cn1cc2c3c(c(Cl)cc2n1)CCC3=O = 207 to 209 °C

Lab note: COc1ccc(C2CCC(=O)CC2=O)cc1 (stereo unspecified) gave melting point of 150 to 151 °C

Looking up Cc1cc(C)c2cccc(OCc3c(Cl)ccc(S(=O)(=O)N4CCC[C@H]4C(=O)NCCCNC(=O)c4cccc(C#N)c4)c3Cl)c2n1 , I found its melting point recorded as 102 to 106 °C

What the record says about O=C1OC(Cc2ccc3c(c2)OCO3)CN1c1ccccc1 (stereo unspecified) : melting point is 110 to 111 °C

So for O=C(O)C(=O)CC(=O)c1ccnn1Cc1ccc(F)cc1 , the logged melting point turned out to be 157 to 159 °C

The reported value for NC(Cc1cccc(C(F)(F)F)c1)=NO in terms of melting point is 91 to 92 °C

// field: melting point; key: CN(c1ncc2ncnc(Nc3ccc(F)c(Cl)c3)c2n1)[C@H]1CC[C@H](N)CC1 ; value = 203 to 205 °C

The reported value for O=C1c2c(Cl)cccc2-n2cnc(-c3nc(CN(CC4CC4)CC4CC4)no3)c2[C@@H]2CCN12 in terms of melting point is 155 to 160 °C

response.value for S=C(NCCc1c[nH]cn1)NCCN(Cc1ccc(Cl)c(Cl)c1)c1ccc(Br)cn1 (field: melting point) = 72 to 78 °C

Looking up CCCCc1ccc(OC)c(-c2csc(NC(=O)c3ccc(C(=O)CCN4CCC(NC(C)=O)C4)cc3)n2)c1 (stereo unspecified) , I found its melting point recorded as 112 °C

Just so you know, measured melting point for Cc1cc2c(c3c1NC(=O)CC3)OC(CN)C2 (stereo unspecified) came out at > 300 °C

The reported value for Cn1cc(-c2cc3cccnc3[nH]2)c2cc(C(=O)NCCN3CCOCC3)ccc21 in terms of melting point is 268 to 270 °C

The value of melting point measured for the compound COc1ccc(CC2NC(=O)NC2=O)cc1OC1CCCC1 (stereo unspecified) turned out to be 151 to 153 °C

For CCN(CC)c1c([N+](=O)[O-])cc(C(F)(F)F)c(N2CCCC2=O)c1[N+](=O)[O-] the compound record lists melting point as 94 to 95 °C

The compound listed as CCOC(=O)c1cc(=O)c2cc(N3CCOCC3)c(=O)ccc2n1C shows melting point equal to 170 to 172 °C

Form: compound = CCS(=O)(=O)c1ccc(-c2coc3ccc(-c4nnc(C)o4)cc23)cc1F ; melting point = 200 to 201 °C

Reported melting point of Cc1ncsc1C(=O)Nc1ccc(-n2nc(C3CC3)cc2C2CC2)c(F)c1 : 102 to 106 °C

Input Cc1ccc(Cn2cnc3c(-c4ccco4)ncnc32)cc1 . Output melting point: 166 to 167 °C

---

Task for the reader: assign each of the following molecules its reported melting point.

// CCOc1cccc(-n2cc(-c3ccc4c(c3)OCO4)c3c(N)ncnc32)c1 : melting point value = 153 to 155 °C

Form: molecule = N#Cc1ccc(C=Cc2ncn(CC(O)(Cn3cncn3)c3ccc(F)cc3F)n2)cc1 (stereo not given) ; melting point = 189 to 191 °C

Value of measured melting point for the entry COC(=O)Nc1cn2nc(OCc3cc(OC)c(OC)c(OC)c3Br)ccc2n1 : 218 to 219 °C

The measured melting point associated with CCOC(=O)C1=C(C)Nc2nc(N)nc(N)c2C1c1ccc(OC)cc1 (stereo not given) reads 98 °C

melting point measured on O=c1[nH]nnc2sccc12 = 175 to 176 °C

Recorded melting point (molecule CCCCCCCCCCOc1ccc(Cc2cccc(C(=O)O)c2)cc1CCC(=O)O ): 146 to 148 °C

Value of melting point reported for the molecule O=c1oc(-c2ccccc2)cc(O)c1SCCCc1ccccc1 is 114 to 116 °C

Field melting point (entry CCCc1c(C(=O)C2CCCC2)c2ccc(C(N)=O)cc2n1Cc1ccccc1Cl ) reads 202 °C

// melting point value for CC(C)(C#N)c1cc(C#N)cc(Cn2ccnc2)c1 : 89 to 92 °C

COc1cc2c(cc1OCc1ccccc1)CCN(Cc1cc(F)cc(F)c1)C2 has a reported melting point of 116 to 117 °C

---

Record form. Attribute: melting point. Fill in for each entry.

// Cc1cccc([C@@H]2C[C@H]3C=C(c4c[nH]c(-c5ccc(F)cc5)c4-c4ccncc4)CCN3C2)c1 : melting point value = 204 to 206 °C

# melting point (molecule: CCN1CCC(=O)N(c2ccc(Cl)cc2C)C1=S ) is 133 to 136 °C

Reported melting point ( C[C@@H](n1cnc2cc(N)ccc2c1=O)[C@](O)(Cn1cncn1)c1ccc(F)cc1F ) = 103 to 109 °C

Per the records, this molecule ( O=[N+]([O-])c1cnccc1NCCN1CCC(Nc2nc3ccccc3n2Cc2ccc(CO)o2)CC1 ) has melting point equal to 191 °C

// recorded melting point for CC(c1ccc(F)c(F)c1)n1ncc(-c2ccc(S(N)(=O)=O)cc2)c(-c2ccc(F)cc2)c1=O (stereo not given) : 214 to 215 °C

---

Kindly state melting point for each of the entries shown.

For reference, reported melting point for C=C(Cn1cc[nH]c1=O)c1ccc(OC)c(OC2CCCC2)c1 stands at 110 °C

CC(C)(C)c1cc(C(=O)Cl)cc(C(C)(C)C)c1O yielded melting point of 90 to 93 °C

For reference, reported melting point for CCCC1(S(=O)(=O)CCCN2CCC(N3Cc4ccccc4C3=O)CC2)c2ccccc2-c2ccccc21 stands at 83 to 86 °C

Form: compound = CC(c1ccc(C(=O)N(C)C2CCCCC2)cc1)n1cnc2ccccc21 (stereo unspecified) ; melting point = 142 to 145 °C

Sample Cn1c(=O)cc(-c2ccccc2)c2cc(C(COCc3ccc(Cl)cc3)(c3ccc(Cl)cc3)n3ccnc3)ccc21 (stereo unspecified) ; melting point observed: 177 °C

melting point reported for this compound Nc1c(Cl)nc(C2CC2)nc1Cl : 54 °C

Entry under test: CNCCCCOc1ccc2c(ccn2-c2ccc(F)cc2)c1 . Its melting point was 49 to 50 °C

// field: melting point; key: CCC(CC)=NNc1cc2c(nn1)CCN(C(=O)C(C)(C)C)C2 ; value = 183 to 185 °C

Quick note, melting point for CCC(C)c1nn(-c2ccc(C(F)(F)F)cn2)cc1CCCOc1c(C)cccc1CC(=O)O (stereo unspecified) landed at 134 to 135 °C

Entry CCOC(=O)NN=C(C)c1cccc(C(F)(F)F)c1 ; melting point = 94 to 96 °C

Summary for this compound, COc1ccc2c(C3CCN(CCCn4c(=O)[nH]c5ccccc54)CC3)noc2c1 : melting point is 176 to 178 °C

// field: melting point; key: CC(=O)OCC1=C(C(=O)OC(C)(C)C)N2C(=O)C(NC(=O)CC3=CSCCS3)C2SC1 (stereo unspecified) ; value = 80 °C

Measured melting point, CS(=O)(=O)Nc1cc(OCCC(=O)O)ccc1Oc1ccccc1 : 145 to 149 °C

Just so you know, measured melting point for CP(=O)(CCC(=O)O)CCC(=O)O came out at 172 to 174 °C

According to the records, this compound O=C(Nc1ccc2c(c1)CSCC2)OCc1ccccc1 displays melting point of 109 to 111 °C

// field: melting point; key: COc1ccc(/C=C(/C#N)c2cccs2)cc1OC1CCCC1 ; value = 100 to 101 °C

Query COc1cccc(COc2ccc(S(=O)(=O)c3ccc(C)nc3Nc3c(C)cc(C)cc3C)cc2)c1 yields melting point of 124 to 126 °C

# compound CNCC(O)COc1ccccc1 (stereo unspecified) ; its melting point = 74 to 77 °C

Record C[C@@H](N1CCN(c2nnn(Cc3ccc(C(F)(F)F)cc3)n2)CC1)[C@](O)(Cn1cncn1)c1ccc(F)cc1F . Reported melting point: 71 to 72 °C

Recorded melting point (compound O=C(C1=C(Nc2ccccc2)CCC1)c1ccccc1Br ): 106 to 108 °C

// CC(C)(C)Nc1c(NCc2cccc(C(F)(F)F)c2)c(=O)c1=O : melting point value = 237 to 239 °C
